- method.notes: NCI Yeast Anticancer Drug Screen. Data for the mlh1 rad18 strain (AID 175)
- measurement.setup: S. cerevisiae mlh1 rad18 strain growth inhibition; at 50.0 µM; active compounds read high
The panel holds about 79,000 compounds, 15% with a hit somewhere; the sample as a whole holds those more often.
Is growth inhibition at least 70%? Then satisfied. If not, not satisfied.

The following compounds have reported results that may help.
[[record]]
compound = "CN(C)C(=S)/N=c1\\ss/c(=N\\C(=S)N(C)C)n1-c1cccc(Cl)c1"
label_value = "satisfied"

[[record]]
compound = "CC(C)(C)c1cc(C2c3cc4c(cc3OC(O)(CO)C2C(=O)O)OCO4)cc(C(C)(C)C)c1O (stereo not drawn) (tested in a mixture with another compound)"
label_value = "not satisfied"

[[record]]
compound = "COc1cc(C/C=C/c2ccccc2)c(OC)cc1O"
label_value = "not satisfied"

[[record]]
compound = "CCCN(CCC)C(=O)c1cccc2ccccc12"
label_value = "not satisfied"

[[record]]
compound = "OCCSC(=S)Nc1ccc(Cl)c(Cl)c1"
label_value = "satisfied"


Does Cc1cccc2c(CC(=O)O)c[nH]c12 have a reported growth inhibition of at least 70%?
satisfied

Assess whether reported growth inhibition for CCCCCCCCC[n+]1cccc(C(=O)c2ccccc2)c1 sits at 70% or higher.
satisfied

In plain terms: is recorded growth inhibition at least 70% for CCCCCCCCCCCCCCCCCC[n+]1cccc(C(=O)c2ccccc2)c1 ?
satisfied

Would you say c1ccc2cc3nc4ccccc4nc3cc2c1 shows growth inhibition at minimum 70%?
satisfied

Tell me whether growth inhibition is at least 70% here: CC(C)=CCC/C(C)=C/CC/C(C)=C/CC/C=C(\C)CC/C=C(\C)CCC[N+](C)(C)[O-]
satisfied

Does growth inhibition meet or surpass 70% for COc1ccc2c(c1)CCC1C2CCC2(C)C(=O)C(SC3=NC=NC4=NC=NC43)CC12 (stereo not drawn) ?
satisfied

Values from PubChem BioAssay (NCI)
